src = paper PMC7377239

Tested on: HUVECs
Assay: High-content imaging cytotoxicity in HUVECs, 24 h
Format: cell-based, human
Settings: Homo sapiens, HUVEC, 24 h, HUVECs, 24 hr, 0.01 µM; 0.00 µM = 100.00; read-out: huvec.mito.24hr
Procedure: Similar to the cultivation of iCell®-endothelial cells, HUVEC maintenance and experimentation are detailed elsewhere ([Iwata et al. 2017]). […] Cytotoxicity was assessed in parallel experiments. […] Phenotypic responses were quantitatively assessed using concentration–response modeling as detailed elsewhere ([Sirenko et al. 2017]). Briefly, phenotypic readouts were normalized to vehicle controls and fit to a four-parameter logistic model in R studio software (version 3.1.1; R Development Core Team). […]
Where a name gives a salt, the structure may show the parent alone.
Some compounds, each annotated with its measured activity at 0.01 µM.
QUANTITY_KIND: activity at 0.01 µM (%)

{"COMPOUND": "Oc1ccc(O)c(-c2ccc(Cl)cc2)c1", "QUANTITY_KIND": "activity at 0.01 µM", "VAL": 83.2}
{"COMPOUND": "O=S(=O)(O)Oc1cc(-c2ccccc2)ccc1Cl [3-yl PCB 3 sulfate]", "QUANTITY_KIND": "activity at 0.01 µM", "VAL": 77.8}
{"COMPOUND": "Clc1cccc(-c2cccc(Cl)c2)c1", "QUANTITY_KIND": "activity at 0.01 µM", "VAL": 90.9}
{"COMPOUND": "O=S(=O)(O)Oc1ccc(-c2cccc(Cl)c2)cc1Cl [4-yl PCB 11 sulfate]", "QUANTITY_KIND": "activity at 0.01 µM", "VAL": 95.5}
